# targetEntity: Beta-1,3-glucan synthase (Candida albicans)
# protocolDescription: In vitro inhibition of glucan synthase obtained from Candida albicans at a concentration of 10 ug/mL.
Numbered stars: 1 amine (or outer) side, 2 acyl side, 3 side chain; on linkers, the order of the positions; unused ones are H or OH. Bridge positions count the residues as written; N and C are the ends. Square brackets hold non-standard residues; d marks the D form. Peptide text beside a SMILES is read from it. * marks the point of attachment. Orn(4R-OH,5R-OH) = O=C([C@H](C[C@@H](O)[C@@H](O)N[*:3])N[*:1])[*:2]; hTyr(3S-OH,4S-OH) = N[C@H](C(=O)O)[C@H](O)[C@@H](O)c1ccc(O)cc1; X1 = O=C(c1ccc(-c2ccc(-c3ccc(-c4ccccc4)cc3)cc2)cc1)*; X6 = CCCCOCCOc1ccc(-c2ccc(-c3ccc(C(=O)*)cc3)cc2)cc1; X2 = CCCOc1ccc(C#Cc2ccc(-c3ccc(C(=O)*)cc3)cc2)cc1; Pro(3S-OH,4S-Me) = C[C@H]1CN[C@H](C(=O)O)[C@H]1O; X21 = CCCCOc1ccc(-c2ccc(C(=O)*)cc2)cc1; Hyp = O=C(O)[C@@H]1C[C@@H](O)CN1
For each entry below, report its inhibition value.
I only need the number, in %, no unit after it.

Incoming: inhibition lookup needed for C[C@@H](O)[C@@H]1NC(=O)[C@H]([C@H](O)[C@@H](O)c2ccc(O)cc2)NC(=O)[C@@H]2C[C@@H](O)CN2C(=O)[C@H]([C@@H](C)O)NC(=O)[C@@H](NC(=O)c2ccc(-c3ccc(-c4ccc(-c5ccccc5)cc4)cc3)cc2)C[C@@H](O)[C@@H](O)NC(=O)[C@@H]2[C@@H](O)[C@@H](C)CN2C1=O (X1-[Orn(4R-OH,5R-OH)]T[Hyp][hTyr(3S-OH,4S-OH)]T[Pro(3S-OH,4S-Me)]; lactam 1-C) , thanks.
Outgoing: 74.7

Incoming: inhibition lookup needed for CCCCOc1ccc(-c2ccc(C(=O)N[C@H]3C[C@@H](O)[C@@H](O)NC(=O)[C@@H]4[C@@H](O)[C@@H](C)CN4C(=O)[C@H]([C@@H](C)O)NC(=O)[C@H]([C@H](O)[C@@H](O)c4ccc(O)cc4)NC(=O)[C@@H]4C[C@@H](O)CN4C(=O)[C@H]([C@@H](C)O)NC3=O)cc2)cc1 (X21-[Orn(4R-OH,5R-OH)]T[Hyp][hTyr(3S-OH,4S-OH)]T[Pro(3S-OH,4S-Me)]; lactam 1-C) , thanks.
Outgoing: 71.4

Incoming: inhibition lookup needed for CCCOc1ccc(C#Cc2ccc(-c3ccc(C(=O)N[C@H]4C[C@@H](O)[C@@H](O)NC(=O)[C@@H]5[C@@H](O)[C@@H](C)CN5C(=O)[C@H]([C@@H](C)O)NC(=O)[C@H]([C@H](O)[C@@H](O)c5ccc(O)cc5)NC(=O)[C@@H]5C[C@@H](O)CN5C(=O)[C@H]([C@@H](C)O)NC4=O)cc3)cc2)cc1 (X2-[Orn(4R-OH,5R-OH)]T[Hyp][hTyr(3S-OH,4S-OH)]T[Pro(3S-OH,4S-Me)]; lactam 1-C) , thanks.
Outgoing: 83.5

Incoming: inhibition lookup needed for CCCCOCCOc1ccc(-c2ccc(-c3ccc(C(=O)N[C@H]4C[C@@H](O)[C@@H](O)NC(=O)[C@@H]5[C@@H](O)[C@@H](C)CN5C(=O)[C@H]([C@@H](C)O)NC(=O)[C@H]([C@H](O)[C@@H](O)c5ccc(O)cc5)NC(=O)[C@@H]5C[C@@H](O)CN5C(=O)[C@H]([C@@H](C)O)NC4=O)cc3)cc2)cc1 (X6-[Orn(4R-OH,5R-OH)]T[Hyp][hTyr(3S-OH,4S-OH)]T[Pro(3S-OH,4S-Me)]; lactam 1-C) , thanks.
Outgoing: 80.1
